Tested on: Human immunodeficiency virus 1
Test: Antiviral activity against X4 tropic HIV-1 clone pNL4-3 infected in H9 cells assessed as reduction in p24 antigen after 4 days by ELISA
Type: functional, organism-based
Conditions: Human immunodeficiency virus 1, pNL4-3, H9, 96 h
Recorded pIC50 values for a group of compounds are listed next.
Quick note: pIC50 values are minus log10 of concentrations in mol/L.

CCN(CC)c1ccc2cc(-c3nc4ccccc4[nH]3)c(=O)oc2c1	6.62

Problem: Can you look up the measured pIC50 of `CCN(CC)c1ccc(/C=C(\C#N)c2nc3cc(OC)ccc3[nH]2)cc1` for me?
Solution: 5.35

* * *

Tested on: Human immunodeficiency virus 1
Assay: Antiviral activity against X4 tropic HIV-1 clone pNL4-3 infected in H9 cells assessed as reduction in p24 antigen after 4 days by ELISA
Format: functional, organism-based
Conditions: Human immunodeficiency virus 1, pNL4-3, H9, 96 h
pIC50: −log10 of the molar value.
# pIC50 per entry

CS(=O)(=O)c1ccc(/C=C(\C#N)c2nc3ccccc3[nH]2)cc1	< 4.30

Problem: Value lookup for pIC50; key = `COc1cc(/C=C(\C#N)c2nc3ccccc3[nH]2)cc(OC)c1OC`
Solution: < 4.30

Problem: For the compound `CCN(CC)c1ccc(/C=C(\C#N)c2nc3cc(C(=O)O)ccc3[nH]2)cc1` , what pIC50 is on record?
Solution: < 4.30

Problem: If you can, please state the reported pIC50 value of `CN(C)c1ccc(/C=C(\C#N)c2nc3ccccc3[nH]2)c(O)c1` .
Solution: < 4.30

* * *

System: Human immunodeficiency virus 1
Test: Antiviral activity against X4 tropic HIV-1 clone pNL4-3 infected in H9 cells assessed as reduction in p24 antigen after 4 days by ELISA
Type: functional, organism-based
Conditions: Human immunodeficiency virus 1, pNL4-3, H9, 96 h
recorded_metric: IC50

// below: answered molecules
CCN(CC)c1ccc(/C=C(\C#N)c2nc3ccccc3n2C)cc1	> 50 µM
N#C/C(=C\c1ccc(C(=O)O)cc1)c1nc2ccccc2[nH]1	> 50 µM

In the following, a different molecule is considered.
Problem: Quick check: IC50 of `CCN(CC)c1ccc(/C=C(\C#N)c2nc3ccccc3n2CC)cc1` ?
Solution: > 50 µM
